system: NCI/ADR-RES ovarian; assay: NCI tumour cell line growth inhibition, 48 h
MEASUREMENT LABEL: TGI

Would you please look over these solved cases?
INSERT INTO results (compound, result) VALUES
  ('Cc1ccc2c(c1)Sc1ccc(N=NN(C)C)cc1N2C', '> 100 µM'),
  ('Cc1cc2c(Br)cc(Br)c(O)c2nc1C(=O)c1ccccc1', '> 100 µM'),
  ('COc1ccc(/C=C2/CCc3cc4ccc(OC)cc4[o+]c32)c(O)c1', '50.6 µM');

response.value for C/C=C/C=C/c1nc(C#N)c(N)o1 (field: TGI) = > 100 µM

// TGI lookup, compound = CCN(CC)CCNC(=O)c1cn2ncnc(Oc3ccc(NC(=O)Nc4ccc(Cl)c(C(F)(F)F)c4)c(F)c3)c2c1C , result: 3.82 µM

Value of TGI reported for the compound CCC(=C(c1ccc(OCCCN(C)C)cc1)c1ccc(OCCCN(C)C)cc1)c1ccc(Cl)cc1 is 4.14 µM

Measured TGI of C[C@H]1[C@H](C)CC[C@]2(C(=O)NCCNCCN)CC[C@]3(C)C(=CC[C@@H]4[C@@]5(C)CCC(=O)C(C)(C)[C@@H]5CC[C@]43C)[C@H]12 : 20 µM

Lookup result for O=[N+]([O-])/C(C(Cl)=C(Cl)Cl)=C(\Nc1cccc2cccnc12)SCc1ccccc1 ; measured TGI: 51.7 µM

Query Oc1ccccc1/C=N/c1nc2cc3sc(/N=C/c4ccccc4O)nc3cc2s1 yields TGI of > 100 µM

Reported TGI ( C(=N\NC1=NCCCN1)/c1ccc2ccccc2c1 ) = 76.1 µM

The value of TGI measured for the compound c1ccc2sc(SCSc3nc4ccccc4s3)nc2c1 turned out to be > 100 µM

* * *

test system: NCI-H522 lung; assay: NCI tumour cell line growth inhibition, 48 h; in the data active = GI50 below about 0.43 µM; inactive = the rest
Just give me one of these, please: 1 for active, -1 for inactive

See these solved cases before continuing.
INSERT INTO measurements (molecule, measured_on, group) VALUES
  ('COCCOCCOCc1n(Cc2ccc3ccccc3n2)c2ccccc2[n+]1Cc1ccc2ccccc2c1', 'NCI-H522 lung', 1),
  ('COc1ccc2cc(-c3ccc(-c4ccc(C(=N)N)s4)s3)ccc2c1', 'NCI-H522 lung', -1),
  ('CC1(C)N=C(N)N=C(N)N1c1ccc(OCC(=O)Nc2ccccc2)c(Cl)c1', 'NCI-H522 lung', -1);

Any idea what this test logged for C[C@H](Cn1ncnn1)Nc1ncc2cc(Oc3ccc(F)cc3F)c(=O)n(C)c2n1 ?
-1

Answer briefly: the call reported for OC(CN1CC1)C(O)CN1CC1 (stereo unspecified) in this assay.
-1

Per the records of this test, what outcome belongs to Cc1ncc(C(=O)Nc2ccc(CN3CCN(C)CC3)c(C(F)(F)F)c2)cc1C#Cc1cnc(NC2CC2)c2ncccc12 ?
-1

// param item: CCN(CC)CCNC(=O)c1cn2ncnc(Oc3ccc(NC(=O)Nc4ccc(Cl)c(C(F)(F)F)c4)c(F)c3)c2c1C ; yields the recorded call
-1

Tell me the assay call for COc1ccc(/C=C2/CCc3cc4ccc(OC)cc4[o+]c32)c(O)c1 please.
-1

# fetch the recorded call for O=S(=O)(CCOCc1ccc(-c2ccc3ncnc(Nc4ccc(OCc5cccc(F)c5)c(Cl)c4)c3c2)o1)c1ccccc1 here
-1

Status in this test for O=C(O)CCC(NC(=S)S)C(=O)O.[Na+].[Zn+2] (stereo unspecified) ?
-1

Per the assay record, what outcome was assigned to NC(=O)c1cccc(Nc2nccc(Nc3cccc(F)c3)n2)c1 ?
-1

Per the records of this test, what outcome belongs to Cn1c([N+](=O)[O-])cnc1/C=C1\Oc2cc(Cl)ccc2C1=O ?
-1

Hi, do you know how CNC(=O)c1cc2c(Oc3ccc(NC(=O)C4(C(=O)Nc5ccc(F)cc5)CC4)cc3)ccnc2cc1OC came out in this test?
-1

Hello, I am checking results. What call was entered for c1ccc(Cn2cnc3ccc(-c4nc(-c5ccc6c(c5)ncn6C5CCCCC5)cn5ccnc45)cc32)cc1 ?
-1

Dear all, I need the recorded test outcome for CC1CCCc2c1nn(C(=O)/C=C(\N)c1ccccc1)c2N (stereo unspecified) , thank you.
-1

Look up the recorded call for COc1ccc(-c2nnc(N3CCN(C(=O)CN4CCN(c5ccc(OC)cc5)CC4)CC3)nc2-c2ccc(OC)cc2)cc1 in this test.
-1

* * *

system: HL-60(TB) leukemia; experiment: NCI tumour cell line growth inhibition, 48 h
Quick reference: TGI of the listed items.

INSERT INTO measurements (molecule, measurement_label, result) VALUES
  ('CN(C)c1nc(=NCc2ccccc2)ss1', 'TGI', '> 8.45 µM'),
  ('CC(=O)[O-].CC(=O)[O-].CC(=O)[O-].CC(=O)[O-].[Mo+2].[Mo+2]', 'TGI', '> 100 µM'),
  ('CCCCCCCCCCCC[n+]1ccccc1 (tested in a mixture with another compound)', 'TGI', '1.04 µM'),
  ('Cc1cc(N(CCC#N)CCC#N)ccc1/C=C1N=C(/C=C/c2ccccc2)OC(=O)N\1', 'TGI', '> 100 µM');

Moving on to the next molecule.
Lab note: measured TGI of COc1ccc(C#CC(=O)O)c(OC)c1 was > 100 µM

* * *

test system: RXF 393 renal; test: NCI tumour cell line growth inhibition, 48 h; in the data active = GI50 below about 0.43 µM; inactive = the rest
In this exercise, the only acceptable responses are TRUE for active, FALSE for inactive

Below are worked cases with known answers.
INSERT INTO assay_data (compound, group) VALUES
  ('C=C(CN1CCc2ccccc2C1)c1ccc(C(=O)Nc2ccccc2N)cc1', 'FALSE'),
  ('O=C(/C=C/c1ccccc1)CC(c1ccccc1)N1CCOCC1 (stereo not given)', 'FALSE'),
  ('CCSc1nc(N)c2cn[nH]c2n1', 'FALSE'),
  ('CNC(=O)c1cc2c(Oc3ccc(NC(=O)C4(C(=O)Nc5ccc(F)cc5)CC4)cc3)ccnc2cc1OC', 'FALSE');

Which outcome was entered for the compound CCC1=C[C@@H]2CN(C1)Cc1c([nH]c3ccccc13)[C@@](C(=O)OC)(c1cc3c(cc1OC)N(C)[C@H]1[C@@](O)(C(=O)OC)[C@H](OC(C)=O)[C@]4(CC)[C@@H]5C[C@@H]5CN5CC[C@]31[C@@H]54)C2 in this test?
TRUE

* * *

Here, each record is paired with measured TGI data.
system: HS 578T breast; experiment: NCI tumour cell line growth inhibition, 48 h

Here's what some known entries look like.
INSERT INTO results (compound, measured_on, result) VALUES
  ('COc1ccccc1-c1cc(=O)c2ccc(C)nc2[nH]1', 'HS 578T breast', '> 100 µM'),
  ('CC(=O)NNc1nc(C)c(C(=O)NNC(=O)C(=O)Nc2nc3ccc([N+](=O)[O-])cc3s2)s1', 'HS 578T breast', '> 100 µM'),
  ('COc1ccc(/C=C2/CCc3cc4ccc(OC)cc4[o+]c32)c(O)c1', 'HS 578T breast', '34.5 µM');

# TGI measured on HS 578T breast for item c1ccc2c(c1)NC(C1OC3CCCN3C1C1Nc3ccccc3S1)S2 (stereo unspecified) = > 100 µM

So the reported TGI for C/C(CC1C2CCCC1C2)=N\NC(N)=O (stereo unspecified) , on HS 578T breast, turned out to be > 100 µM

// TGI (HS 578T breast) for CCCCCCCCCCN=C(c1ccc(N(C)C)cc1)c1ccc(N(C)C)cc1 = 39.1 µM

* * *

system: UO-31 renal; test: NCI tumour cell line growth inhibition, 48 h
MEASUREMENT LABEL: TGI

Known TGI results, listed for orientation:
INSERT INTO measurements (molecule, measurement_label, result) VALUES
  ('COc1cc(C2CC(C)(Nc3ccccc3)Oc3cc4c(cc32)OCO4)cc(OC)c1OC (stereo unspecified)', 'TGI', '34.2 µM'),
  ('BrC/C=C/C[P+](c1ccccc1)(c1ccccc1)c1ccccc1', 'TGI', '> 100 µM'),
  ('COc1cc2cnc3c4ccccc4ccc3c2cc1OC', 'TGI', '> 100 µM'),
  ('Cc1cc2c(Br)cc(Br)c(O)c2nc1C(=O)c1ccccc1', 'TGI', '> 82.1 µM'),
  ('O=c1ccc2cc3ccc4cccc5ccc(c2o1)c3c45', 'TGI', '44.9 µM'),
  ('CCCCCCCCCCN=C(c1ccc(N(C)C)cc1)c1ccc(N(C)C)cc1', 'TGI', '33 µM');

Just so you know, measured TGI for COc1ccc(CC(C)C(C)Cc2ccc(OC)c(OC)c2)cc1OC (stereo unspecified) came out at > 1400 µM

Sample Cc1cc(N(CCC#N)CCC#N)ccc1/C=C1N=C(/C=C/c2ccccc2)OC(=O)N\1 ; TGI observed: > 100 µM

Short answer for COc1ccc2nc3cc(Cl)ccc3c(NCCCNCCCNc3c4ccc(Cl)cc4nc4ccc(OC)cc34)c2c1 : TGI was 0.989 µM

Noted for CC1=C(C(=O)Nc2ccccc2C)C(/C=C/c2ccccc2)C(C(=O)Nc2ccccc2C)=C(C)N1 : its TGI reads > 100 µM

Reported TGI ( CCOC(=O)C(=O)Nc1ccccc1C(F)(F)F ) = > 100 µM
